assay: Cmax in spontaneously hypertensive Wistar rat at 10 mg/kg, po; assay type: ADME, organism-based; design: dose 10 mg/kg, route po; conditions: in vivo
parameter: Cmax

Asked: Name the reported Cmax value associated with the compound O=C(O)c1c(-c2ccccc2)n(C(=O)c2ccccc2)c2ccccc12
Given back: 18.1 ng/mL

----------
experiment: MRT (0 to infinity) in spontaneously hypertensive Wistar rat at 10 mg/kg, po; format: ADME, organism-based; conditions: in vivo
parameter: MRT inf (h)
Answer in h, number only, no unit symbol.

Asked: Name the reported MRT inf value associated with the compound O=C(O)c1c(-c2ccccc2)n(C(=O)c2ccccc2)c2ccccc12
Given back: 30.3

----------
experiment: MRT (0 to 72 hrs) in spontaneously hypertensive Wistar rat at 10 mg/kg, po; format: ADME, organism-based; conditions: in vivo
parameter: MRT last
Hi, when you answer, please include the unit after the number. Thanks!

Asked: Name the reported MRT last value associated with the compound O=C(O)c1c(-c2ccccc2)n(C(=O)c2ccccc2)c2ccccc12
Given back: 20.2 h

----------
experiment: AUC (0 to 72 hrs) in spontaneously hypertensive Wistar rat at 10 mg/kg, po; assay type: ADME, organism-based; parameters: dose 10 mg/kg, route po; details: in vivo
parameter: AUC(0-t)
Hi, when you answer, please include the unit after the number. Thanks!

Asked: Name the reported AUC(0-t) value associated with the molecule O=C(O)c1c(-c2ccccc2)n(C(=O)c2ccccc2)c2ccccc12
Given back: 253 ng·h/mL

----------
Target: Type-1 angiotensin II receptor (Homo sapiens, UniProt P30556)
Sequence (P30556 whole entry): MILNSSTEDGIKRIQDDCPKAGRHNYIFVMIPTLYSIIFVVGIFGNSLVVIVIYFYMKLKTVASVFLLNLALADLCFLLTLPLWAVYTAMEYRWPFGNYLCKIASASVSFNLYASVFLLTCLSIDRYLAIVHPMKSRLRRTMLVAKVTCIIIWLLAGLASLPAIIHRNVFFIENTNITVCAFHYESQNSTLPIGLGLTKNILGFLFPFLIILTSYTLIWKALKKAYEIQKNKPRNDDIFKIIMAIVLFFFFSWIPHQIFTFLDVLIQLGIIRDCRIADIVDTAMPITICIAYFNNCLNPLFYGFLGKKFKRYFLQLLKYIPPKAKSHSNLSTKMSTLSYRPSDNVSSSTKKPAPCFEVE
Test: Displacement of [125I]-Angiotensin II from Angiotensin II type-1 receptor in VSMC cells (unknown origin) assessed as inhibition constant by competition radioligand binding assay
parameter: pKi
Hey, just a heads up that pKi is the negative log base 10 of the concentration in molar.

Below, 5 compounds whose answers are already recorded.
1. Cc1ccc(S(=O)(=O)n2c(CO)c(C(=O)O)c3ccccc32)cc1 7.63
2. CCCCc1c(C(=O)O)c2ccccc2n1S(C)(=O)=O 7.54
3. O=C(O)c1c(-c2ccccc2)n(C(=O)c2ccccc2)c2ccccc12 7.96
4. CCCCc1c(C(=O)O)c2ccccc2n1S(=O)(=O)c1ccc(C)cc1 7.56
5. Cc1ccc(S(=O)(=O)n2c(-c3ccccc3)c(C(=O)O)c3ccccc32)cc1 7.79

Asked: Name the reported pKi value associated with the compound O=C(O)c1c(COCc2ccccc2)n(C(=O)c2ccccc2)c2ccccc12
Given back: 7.50

Asked: Query CS(=O)(=O)n1c(-c2ccccc2)c(C(=O)O)c2ccccc21 next
Given back: 7.97

Asked: Query O=C(O)c1c(CO)n(C(=O)c2ccccc2)c2ccccc12 next
Given back: 7.51
